target entity: Human immunodeficiency virus type 1 protease (Human immunodeficiency virus 1)
experimental details: Inhibitory concentration against human immunodeficiency virus-1 protease; (competitive inhibitor)

- molecule: "CC(O)[C@H](NC(=O)CCCCCCCCCCCCCCC(=O)N[C@H](CC(=O)N[C@@H](Cc1ccccc1)C(=O)O)C(N)=O)C(=O)N[C@@H](Cc1ccccc1)C(N)=O (stereo partly specified)"
  IC50: "11 µM"

###

The following molecules have recorded pKi on Human immunodeficiency virus type 1 protease (Human immunodeficiency virus 1).
pKi: −log10 of the molar value.
observable: pKi

- molecule: "CCC(C)[C@H](NC(=O)CCCCCCCCCCCCCCC(=O)N[C@@H](CC(N)=O)C(=O)N[C@@H](CCc1ccccc1)C(=O)O)C(=O)N[C@H](Cc1ccccc1)C(N)=O (stereo not given in full)"
  target entity: "Human immunodeficiency virus type 1 protease (Human immunodeficiency virus 1)"
  numeric result: 6.57
- molecule: "CCC(C)[C@H](NC(=O)CCCCCCCCCCCCCCC(=O)N[C@@H](CC(N)=O)C(=O)NC(CC1CCCCC1)C(=O)O)C(=O)N[C@H](Cc1ccccc1)C(N)=O (stereo not given in full)"
  target entity: "Human immunodeficiency virus type 1 protease (Human immunodeficiency virus 1)"
  numeric result: 6.55
- molecule: "CC[C@H](C)[C@@H](NC(=O)[C@H]([C@H](C)O)N(C)C(=O)CCCCCCCCCCCCCCC(=O)NC(CC(C)C)C(=O)N[C@@H](Cc1ccccc1)C(=O)O)C(=O)NC(CO)C(N)=O (stereo not given in full)"
  target entity: "Human immunodeficiency virus type 1 protease (Human immunodeficiency virus 1)"
  numeric result: 6.56
- molecule: "CCC(C)[C@@H](NC(=O)[C@@H](NC(=O)CCCCCCCCCCCCCCC(=O)N[C@@H](C(=O)N[C@@H](Cc1ccccc1)C(=O)O)c1ccc(OCc2ccccc2)cc1)C(C)O)C(=O)NC(CO)C(N)=O (stereo not given in full)"
  target entity: "Human immunodeficiency virus type 1 protease (Human immunodeficiency virus 1)"
  numeric result: 6.96
- molecule: "CCC(C)[C@H](NC(=O)CCCCCCCCCCCCCCC(=O)N[C@@H](CC(N)=O)C(=O)N[C@@H](Cc1ccc([N+](=O)[O-])cc1)C(=O)O)C(=O)N[C@H](Cc1ccccc1)C(N)=O (stereo not given in full)"
  target entity: "Human immunodeficiency virus type 1 protease (Human immunodeficiency virus 1)"
  numeric result: 6.42
